Recorded half-life at 22 μM by entry
testMethodNotes: Simulated Intestinal Fluid (SIF) Stability Assay
Assay type: in vitro ADME
studyConditions: pig, simulated intestinal fluid (SIF) with 1% porcine pancreatin, pH 6.5, porcine pancreatin, 37° C.; monomers, Table 6
Where a SMILES comes first, the peptide text is derived from it.
propertyMeasured: half-life at 22 μM

CC(C)C[C@@H]1NC(=O)[C@H]([C@@H](C)O)NC(=O)[C@H](CC(=O)O)NC(=O)[C@H](CO)NC(=O)[C@H](CCCNC(=N)N)N(C)C(=O)CSC(C)(C)[C@@H](C(=O)N[C@@H](Cc2c[nH]c3ccccc23)C(=O)N[C@H](CCCCN)C(N)=O)NC1=O :: > 3 h
CC(C)C[C@@H]1NC(=O)[C@H]([C@@H](C)O)NC(=O)[C@H](CC(=O)O)NC(=O)[C@H](CO)NC(=O)[C@H](CCCNC(=N)N)N(C)C(=O)c2ccccc2CSC(C)(C)[C@@H](C(=O)N[C@H](Cc2ccccc2)C(=O)N[C@@H](CCC(=O)O)C(=O)N[C@H](CCCCN)C(N)=O)NC1=O [compound 72] (HELM PEPTIDE1{[meR].S.D.T.L.[Pen].[dF].E.[dK].[am]}|CHEM1{[O=C(c1ccccc1C[*:2])[*:1]]}$PEPTIDE1,CHEM1,1:R1-1:R1|PEPTIDE1,CHEM1,6:R3-1:R2$$$V2.0) :: > 3 h
CC(C)C[C@@H]1NC(=O)[C@H]([C@@H](C)O)NC(=O)[C@H](CC(=O)O)NC(=O)[C@H](CO)NC(=O)[C@H](CCCNC(=N)N)N(C)C(=O)C(C)SC[C@@H](C(=O)N[C@@H](Cc2c[nH]c3ccccc23)C(=O)N[C@H](CCCCN)C(N)=O)NC1=O (single isomer, unassigned) :: 0.1 h

FYI, the data here is from patent US20260217767A1.
